Target: Oxytocin receptor (Rattus norvegicus, UniProt P70536)
Sequence (P70536 whole entry): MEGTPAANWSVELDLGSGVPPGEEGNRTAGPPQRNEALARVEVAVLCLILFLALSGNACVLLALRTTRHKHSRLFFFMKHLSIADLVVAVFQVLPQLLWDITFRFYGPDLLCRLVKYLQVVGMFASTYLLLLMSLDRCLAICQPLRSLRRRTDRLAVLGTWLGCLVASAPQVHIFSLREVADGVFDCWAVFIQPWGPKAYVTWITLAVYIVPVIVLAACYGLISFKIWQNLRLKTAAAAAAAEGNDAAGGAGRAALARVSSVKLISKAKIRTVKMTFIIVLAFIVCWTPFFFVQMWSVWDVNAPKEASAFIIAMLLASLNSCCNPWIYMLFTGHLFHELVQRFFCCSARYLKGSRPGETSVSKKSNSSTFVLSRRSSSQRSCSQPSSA
pKi: −log10 of the molar value. Numbered stars: 1 amine (or outer) side, 2 acyl side, 3 side chain; on linkers, the order of the positions; unused ones are H or OH. Square brackets hold non-standard residues; d marks the D form. Peptide text beside a SMILES is read from it. X6 = CN(C)C[C@H]1C=NN([*:1])[C@H](C(=O)[*:2])C1; X5 = O=C1CC[C@@H](C(=O)[*:2])N([*:1])N1; dPiz(1,6-dehydro) = O=C(O)[C@H]1CCC=NN1; X3 = O=C([C@H]1CCCNN1[*:1])[*:2]; dNMeF = CN[C@H](Cc1ccccc1)C(=O)O
Overview of recorded pKi for various compounds
value_kind: pKi

INSERT INTO assay_data (compound, modifier_sign, recorded_value) VALUES
  ('CC[C@H](C)[C@@H]1NC[C@@H](Cc2ccccc2)NC(=O)[C@@H]2CCCN2C(=O)[C@@H](Cc2ccccc2)N(C)C(=O)[C@@H]2CCC=NN2C(=O)[C@H]2CCC=NN2C1=O', '<', 4.52),
  ('CC[C@H](C)[C@@H]1NC(=O)[C@@H](Cc2ccccc2)NC(=O)[C@@H]2CCCN2C(=O)[C@@H](Cc2ccccc2)N(C)C(=O)[C@@H]2CCC(=O)NN2C(=O)[C@H]2CCCNN2C1=O (cyclo(I[X3][X5][dNMeF]P[dF]))', '=', 7.05),
  ('CC[C@H](C)[C@@H]1NC(=O)[C@@H](Cc2ccccc2)NC(=O)[C@@H]2CCCN2C(=O)[C@@H](Cc2ccccc2)N(C)C(=O)[C@@H]2CCC(=O)NN2C(=O)[C@H]2CCC=NN2C1=O (cyclo(I[dPiz(1,6-dehydro)][X5][dNMeF]P[dF]))', '=', 8.02),
  ('CC[C@H](C)[C@@H]1NC(=O)[C@@H](Cc2ccccc2)NC(=O)[C@@H]2CCCN2C(=O)[C@@H](Cc2ccccc2)N(C)C(=O)[C@@H]2C[C@@H](CN(C)C)C=NN2C(=O)[C@H]2CCC=NN2C1=O (cyclo(I[dPiz(1,6-dehydro)][X6][dNMeF]P[dF]))', '=', 8.47);

----------
Molecular target: Oxytocin receptor (Rattus norvegicus, UniProt P70536)
Sequence (P70536 whole entry): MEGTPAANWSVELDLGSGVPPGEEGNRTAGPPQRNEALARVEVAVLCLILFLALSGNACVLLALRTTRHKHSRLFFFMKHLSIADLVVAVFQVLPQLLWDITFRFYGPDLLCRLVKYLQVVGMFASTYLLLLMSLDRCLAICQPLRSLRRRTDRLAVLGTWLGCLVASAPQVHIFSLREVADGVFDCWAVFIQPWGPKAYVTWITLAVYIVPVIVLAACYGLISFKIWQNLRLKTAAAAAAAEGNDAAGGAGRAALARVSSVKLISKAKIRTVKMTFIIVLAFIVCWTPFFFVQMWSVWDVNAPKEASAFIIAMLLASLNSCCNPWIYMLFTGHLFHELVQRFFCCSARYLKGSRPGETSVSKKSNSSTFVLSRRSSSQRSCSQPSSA
Numbered stars: 1 amine (or outer) side, 2 acyl side, 3 side chain; on linkers, the order of the positions; unused ones are H or OH. Square brackets hold non-standard residues; d marks the D form. Peptide text beside a SMILES is read from it. dPiz(1,6-dehydro) = O=C(O)[C@H]1CCC=NN1; X2 = CN1CCC[C@@H](C(=O)[*:2])N1[*:1]; X1 = CN1CCC[C@H](C(=O)[*:2])N1[*:1]; X7 = O=C([C@@H]1C=CC=NN1[*:1])[*:2]; X4 = O=C([C@@H]1CCCNN1[*:1])[*:2]; X3 = O=C([C@H]1CCCNN1[*:1])[*:2]; dNMeF = CN[C@H](Cc1ccccc1)C(=O)O
# Ki per record follows
value_kind: Ki (µM)

INSERT INTO measurements (compound, recorded_value) VALUES
  ('CC[C@H](C)[C@@H]1NC(=O)[C@@H](Cc2ccccc2)NC(=O)[C@@H]2CCCN2C(=O)[C@@H](Cc2ccccc2)N(C)C(=O)[C@@H]2C=CC=NN2C(=O)[C@H]2CCC=NN2C1=O (cyclo(I[dPiz(1,6-dehydro)][X7][dNMeF]P[dF]))', 0.0081),
  ('CC[C@H](C)[C@@H]1NC(=O)[C@@H](Cc2ccccc2)NC(=O)[C@@H]2CCCN2C(=O)[C@@H](Cc2ccccc2)N(C)C(=O)[C@@H]2CCCNN2C(=O)[C@H]2CCCNN2C1=O (cyclo([X3][X4][dNMeF]P[dF]I))', 0.03),
  ('CC[C@H](C)[C@@H]1NC(=O)[C@@H](Cc2ccccc2)NC(=O)[C@@H]2CCCN2C(=O)[C@@H](Cc2ccccc2)N(C)C(=O)[C@@H]2CCCN(C)N2C(=O)[C@H]2CCCN(C)N2C1=O (cyclo(I[X1][X2][dNMeF]P[dF]))', 2.5),
  ('CC[C@@H](C)[C@@H]1/N=C(\S)[C@@H](Cc2ccccc2)NC(=O)[C@@H]2CCCN2C(=O)[C@@H](Cc2ccccc2)N(C)C(=O)[C@@H]2CCC=NN2C(=O)[C@H]2CCC=NN2C1=O', 0.0011);

----------
Data export: pKi values recorded with UniProtKB Q00788.
pKi: −log10 of the molar value. Numbered stars: 1 amine (or outer) side, 2 acyl side, 3 side chain; on linkers, the order of the positions; unused ones are H or OH. Square brackets hold non-standard residues; d marks the D form. Peptide text beside a SMILES is read from it. X6 = CN(C)C[C@H]1C=NN([*:1])[C@H](C(=O)[*:2])C1; X5 = O=C1CC[C@@H](C(=O)[*:2])N([*:1])N1; dPiz(1,6-dehydro) = O=C(O)[C@H]1CCC=NN1; dNMeF = CN[C@H](Cc1ccccc1)C(=O)O
value_kind: pKi

INSERT INTO results (compound, value_kind, recorded_value) VALUES
  ('CC[C@H](C)[C@@H]1NC(=O)[C@@H](Cc2ccccc2)NC(=O)[C@@H]2CCCN2C(=O)[C@@H](Cc2ccccc2)N(C)C(=O)[C@@H]2CCC(=O)NN2C(=O)[C@H]2CCC=NN2C1=O (cyclo(I[dPiz(1,6-dehydro)][X5][dNMeF]P[dF]))', 'pKi', 5.17),
  ('CC[C@H](C)[C@@H]1NC(=O)[C@@H](Cc2ccccc2)NC(=O)[C@@H]2CCCN2C(=O)[C@@H](Cc2ccccc2)N(C)C(=O)[C@@H]2C[C@@H](CN(C)C)C=NN2C(=O)[C@H]2CCC=NN2C1=O (cyclo(I[dPiz(1,6-dehydro)][X6][dNMeF]P[dF]))', 'pKi', 5.96);

----------
molecular target: Vasopressin V2 receptor (Rattus norvegicus, UniProt Q00788)
Sequence (Q00788 whole entry): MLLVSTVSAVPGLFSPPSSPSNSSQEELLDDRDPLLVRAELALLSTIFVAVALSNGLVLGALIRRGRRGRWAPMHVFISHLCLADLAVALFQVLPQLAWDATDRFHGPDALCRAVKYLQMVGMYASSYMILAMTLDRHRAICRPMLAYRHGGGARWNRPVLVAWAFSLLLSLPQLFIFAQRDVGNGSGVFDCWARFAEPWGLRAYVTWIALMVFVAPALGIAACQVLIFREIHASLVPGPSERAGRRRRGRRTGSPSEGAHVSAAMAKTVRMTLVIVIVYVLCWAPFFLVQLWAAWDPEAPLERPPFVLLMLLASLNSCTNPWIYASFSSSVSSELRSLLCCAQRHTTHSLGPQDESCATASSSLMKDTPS
pKi: −log10 of the molar value. Numbered stars: 1 amine (or outer) side, 2 acyl side, 3 side chain; on linkers, the order of the positions; unused ones are H or OH. Square brackets hold non-standard residues; d marks the D form. Peptide text beside a SMILES is read from it. X5 = O=C1CC[C@@H](C(=O)[*:2])N([*:1])N1; dPiz(1,6-dehydro) = O=C(O)[C@H]1CCC=NN1; X2 = CN1CCC[C@@H](C(=O)[*:2])N1[*:1]; X1 = CN1CCC[C@H](C(=O)[*:2])N1[*:1]; X7 = O=C([C@@H]1C=CC=NN1[*:1])[*:2]; X3 = O=C([C@H]1CCCNN1[*:1])[*:2]; dNMeF = CN[C@H](Cc1ccccc1)C(=O)O
Returns one of y or n; y when pKi is >= 6.

INSERT INTO measurements (compound, label_value) VALUES
  ('CC[C@H](C)[C@@H]1NC(=O)[C@@H](Cc2ccccc2)NC(=O)[C@@H]2CCCN2C(=O)[C@@H](Cc2ccccc2)N(C)C(=O)[C@@H]2CCCN(C)N2C(=O)[C@H]2CCCN(C)N2C1=O (cyclo(I[X1][X2][dNMeF]P[dF]))', 'n'),
  ('CC[C@H](C)[C@@H]1NC(=O)[C@@H](Cc2ccccc2)NC(=O)[C@@H]2CCCN2C(=O)[C@@H](Cc2ccccc2)N(C)C(=O)[C@@H]2C=CC=NN2C(=O)[C@H]2CCC=NN2C1=O (cyclo(I[dPiz(1,6-dehydro)][X7][dNMeF]P[dF]))', 'y'),
  ('CC[C@H](C)[C@H]1C(=O)N2NCCC[C@@H]2C(=O)N2NCCC[C@H]2C(=O)N(C)[C@H](Cc2ccccc2)C(=O)N2CCC[C@H]2C(=O)N[C@H](Cc2ccccc2)C(=O)N1O', 'n'),
  ('CC[C@H](C)[C@@H]1NC[C@@H](Cc2ccccc2)NC(=O)[C@@H]2CCCN2C(=O)[C@@H](Cc2ccccc2)N(C)C(=O)[C@@H]2CCC=NN2C(=O)[C@H]2CCC=NN2C1=O', 'n'),
  ('CC[C@H](C)[C@@H]1NC(=O)[C@@H](Cc2ccccc2)NC(=O)[C@@H]2CCCN2C(=O)[C@@H](Cc2ccccc2)N(C)C(=O)[C@@H]2CCC(=O)NN2C(=O)[C@H]2CCCNN2C1=O (cyclo(I[X3][X5][dNMeF]P[dF]))', 'n');
